These measurements were taken from ChEMBL document CHEMBL3507680.

cytotoxicity at 70.5 h by entry:
experiment: Human HepG2 cell viability assay in 384 well format; assay type: toxicity, cell-based; parameters: dose 125 nL, time 70.5 hour; concentration not given beside the values; conditions: HepG2 cells, read-out: Inhibition
Write the answer as a number in %, unit excluded.

Example entries and their recorded answers appear below.
[
  {
    "molecule": "CC(C)CCN1C2(CCN(Cc3nccs3)C2)c2ccccc2S1(=O)=O (stereo not given)",
    "cytotoxicity at 70.5 h [%]": -11.4
  },
  {
    "molecule": "Cn1cnnc1C1CCCN(C(=O)c2ccccn2)C1 (stereo not given)",
    "cytotoxicity at 70.5 h [%]": 16
  },
  {
    "molecule": "CCn1nc(C)c2ncnc(N3CCCC(C)C3)c21 (stereo not given)",
    "cytotoxicity at 70.5 h [%]": 8.26
  },
  {
    "molecule": "CNC(=O)C(C)(C)N1CCC[C@H]1C(=O)NCCN1CCCC1",
    "cytotoxicity at 70.5 h [%]": 5.17
  },
  {
    "molecule": "c1cc2c(cc1CSCc1noc(C3CC3)n1)OCCO2",
    "cytotoxicity at 70.5 h [%]": -13.8
  },
  {
    "molecule": "O=C(C1CC1)N1C[C@@H](F)[C@@H](OCc2nc3ccccc3[nH]2)C1",
    "cytotoxicity at 70.5 h [%]": 4.35
  },
  {
    "molecule": "CN1CCN(C2CCN(c3ccnc(-c4ccccc4)n3)CC2)C1=O",
    "cytotoxicity at 70.5 h [%]": 6.14
  },
  {
    "molecule": "OC1=C2C(=Nc3n[nH]c(O)c3C2c2ccco2)CCC1 (stereo not given)",
    "cytotoxicity at 70.5 h [%]": -9.2
  }
]

Item under review: COC(=O)CN1CC(c2nc(Cc3ccccc3)no2)C1 . Reported cytotoxicity at 70.5 h?
-6.57

Need cytotoxicity at 70.5 h, item Cc1ccc2oc(SCC(=O)NC(C)(C)C)nc2n1
-6.39

Which cytotoxicity at 70.5 h is reported for this molecule? COCC1(CNC(=O)Nc2cc(F)ccc2OC)CCCC1
6.61

Can you look up the measured cytotoxicity at 70.5 h of CC(C)C(Sc1ccccc1)C(=O)N(C)Cc1nnc2n1CCC2 (stereo not given) for me?
25.6

So what does the record say about cytotoxicity at 70.5 h for CC(NC(=O)Cc1ccccc1F)(C(N)=O)c1cccc(Cl)c1 (stereo not given) ?
-6.76

Can you share its cytotoxicity at 70.5 h? I mean this molecule: CCCNC(=O)CCNC(=O)c1ccccc1N1CCOCC1
-4.62

Would you kindly share the measured cytotoxicity at 70.5 h for Cc1nn(C)cc1C1CC(=O)Nc2c1cnn2C(C)(C)C (stereo not given) ?
-4.68

Returns the measured cytotoxicity at 70.5 h for the input molecule. Input: CCCc1cc(C(=O)N2C[C@@H](C)[C@](O)(C3CCC3)C2)[nH]n1
8.19

// returns reported cytotoxicity at 70.5 h for input COc1c(CNCc2ccc(CN(C)C)cc2)c(C)nn1C
-4.98

Which measured cytotoxicity at 70.5 h value corresponds to CCS(=O)(=O)N1CCN(Cc2ccncc2)c2nc(C)ccc2C1 ?
-5.64

Would you kindly share the measured cytotoxicity at 70.5 h for Cc1ccc(CN2CCCC(c3nnc(CN4CCCCC4)n3C)C2)s1 (stereo not given) ?
4.84

Please give the measured cytotoxicity at 70.5 h for this molecule: COCc1cc(N(CC(F)F)C2CC2)n2ncnc2n1
-5.91

Given FC1(F)CCN(Cc2ccccn2)CC12CCN(c1cccnc1)C2 (stereo not given) , state its recorded cytotoxicity at 70.5 h.
21.6

Reported cytotoxicity at 70.5 h, molecule O=C(c1ccncc1)N1CCC(O)(Cn2ccc3ccncc32)CC1 : ____
-13.3

Which value of cytotoxicity at 70.5 h has been reported for O=C(CSC1CCc2ccccc2NC1=O)NCCc1ccc(O)cc1 (stereo not given) in the records?
-2.27

What does the record list as cytotoxicity at 70.5 h for COc1cccc(CN2C[C@@H]3COC[C@]3(CN3CCOCC3)C2)c1 ?
6.49
